viability at 48 h, 1 µM values, listed per item
Test: Phototoxicity against 50 mW/cm^2 white light irradiated Vero cells assessed as viable cells pretreated at 1.0 uM after 48 hrs by MTT assay
Type: cell-based
Settings: chlorocebus sabaeus, Vero cells; read-out: Activity
I only need the number, in %, no unit after it.

O=C(OC[C@H]1OC(O)[C@H](O)[C@@H](O)[C@H]1O)c1ccc(-c2c3nc(c(-c4ccncc4)c4ccc([nH]4)c(-c4ccncc4)c4nc(c(-c5ccncc5)c5ccc2[nH]5)C=C4)C=C3)cc1 (stereo partly drawn) | 27.2
O=C(O)c1ccc(-c2c3nc(c(-c4ccncc4)c4ccc([nH]4)c(-c4ccncc4)c4nc(c(-c5ccncc5)c5ccc2[nH]5)C=C4)C=C3)cc1 | 39.7

Inquiry: Look up viability at 48 h, 1 µM: C[n+]1ccc(-c2c3nc(c(-c4cc[n+](C)cc4)c4ccc([nH]4)c(-c4cc[n+](C)cc4)c4nc(c(-c5ccc(C(=O)O)cc5)c5ccc2[nH]5)C=C4)C=C3)cc1.[I-].[I-].[I-]
Reply text: 76.6

* * *

Test: Phototoxicity against 50 mW/cm^2 white light irradiated Vero cells assessed as viable cells pretreated at 0.01 uM after 48 hrs by MTT assay
Format: cell-based
Conditions: chlorocebus sabaeus, Vero cells; read-out: Activity
viability at 48 h, 0.01 µM values, listed per item
Reply with the number, then its unit.

O=C(O)c1ccc(-c2c3nc(c(-c4ccncc4)c4ccc([nH]4)c(-c4ccncc4)c4nc(c(-c5ccncc5)c5ccc2[nH]5)C=C4)C=C3)cc1 [PORPHIRIN] | 105%
O=C(OC[C@H]1OC(O)[C@H](O)[C@@H](O)[C@H]1O)c1ccc(-c2c3nc(c(-c4ccncc4)c4ccc([nH]4)c(-c4ccncc4)c4nc(c(-c5ccncc5)c5ccc2[nH]5)C=C4)C=C3)cc1 (stereo partly drawn) | 108%

Next, consider the following compound.
Inquiry: Look up viability at 48 h, 0.01 µM: C[n+]1ccc(-c2c3nc(c(-c4cc[n+](C)cc4)c4ccc([nH]4)c(-c4cc[n+](C)cc4)c4nc(c(-c5ccc(C(=O)O)cc5)c5ccc2[nH]5)C=C4)C=C3)cc1.[I-].[I-].[I-]
Reply text: 110%
